Data credit: paper PMC3556473

- method-summary: Plasma pharmacokinetics of pomalidomide and its enantiomers (chiral LC–MS/MS) after a single oral 2 mg dose of [14C]pomalidomide
- Type: in vivo, human
- condition-description: male, human, po, 2 mg, mean ± SD (n = 8), read-out: t ½ (converted)
property-measured: half-life

Ask | Please report the measured half-life for Nc1cccc2c1C(=O)N(C1CCC(=O)NC1=O)C2=O (racemic) [Pomalidomide]
Reply | 11.2 h

---

- method-summary: Plasma pharmacokinetics of pomalidomide and its enantiomers (chiral LC–MS/MS) after a single oral 2 mg dose of [14C]pomalidomide
- Assay type: in vivo, human
- condition-description: human, healthy male subjects, mean ± SD (n = 8)
property-measured: Cmax (ng/mL)
Report as a plain number; the unit ng/mL is understood.

Ask | Give Cmax for Nc1cccc2c1C(=O)N(C1CCC(=O)NC1=O)C2=O (racemic) [Pomalidomide]
Reply | 13

---

- method-summary: Plasma pharmacokinetics of pomalidomide and circulating metabolites by radiochromatography (metabolite profiling)
- Assay type: in vivo, human
- condition-description: AUC0–24 (unchanged drug or metabolite)/AUC0–24 (TRA) * 100 %
Label rule, in plain words: Plasma (% AUC relative to TRA) of 4% and up is T, under 4% is F.

# compound, label-class
rows = [
    ("Nc1cccc2c1C(=O)N(C1CCC(=O)NC1=O)C2=O (racemic) [Pomalidomide]", "T"),
]

Ask | Reported Plasma (% AUC relative to TRA) reaches at least 4% for NC(=O)CCC(C(=O)O)N1C(=O)c2cccc(N)c2C1=O (stereo not drawn) [Metabolite M11] ?
Reply | T

Ask | Determine whether this compound has Plasma (% AUC relative to TRA) no lower than 4%: Nc1c(O[C@@H]2O[C@H](C(=O)O)[C@@H](O)[C@H](O)[C@H]2O)ccc2c1C(=O)N(C1CCC(=O)NC1=O)C2=O (stereo partly drawn) [Metabolite M13]
Reply | F

Ask | Hello, I need to know if Nc1c(O[C@@H]2O[C@H](C(=O)O)[C@@H](O)[C@H](O)[C@H]2O)ccc2c1C(=O)N(C1CCC(=O)NC1=O)C2=O (stereo partly drawn) [Metabolite M12] has measured Plasma (% AUC relative to TRA) not below 4%. Thanks!
Reply | T

Ask | Does the compound Nc1cccc(C(=O)O)c1C(=O)O [Metabolite M2, 3-Aminophthalic acid] have recorded Plasma (% AUC relative to TRA) that is 4% or more?
Reply | F

Ask | Say whether Nc1ccc(O)c2c1C(=O)N(C1CCC(=O)NC1=O)C2=O (stereo not drawn) [Metabolite M16, 7-hydroxy pomalidomide] shows Plasma (% AUC relative to TRA) of 4% or more.
Reply | T

---

- method-summary: Plasma pharmacokinetics of pomalidomide and circulating metabolites by radiochromatography (metabolite profiling)
- Format: in vivo, human
- Set-up: concentration or dose not given beside the values
- condition-description: plasma, radiochromatography, geometric mean (%CV)
property-measured: AUC0–24

Ask | Specify measured AUC0–24 for Nc1cccc2c1C(=O)N(C1CCC(=O)NC1=O)C2=O (racemic) [Pomalidomide] .
Reply | 135 (33.4) ngEq*h/mL

Ask | Output AUC0–24 of Nc1c(O[C@@H]2O[C@H](C(=O)O)[C@@H](O)[C@H](O)[C@H]2O)ccc2c1C(=O)N(C1CCC(=O)NC1=O)C2=O (stereo partly shown) [Metabolite M13]
Reply | 3.86 (54.0) ngEq*h/mL

Ask | Please report AUC0–24 for the following compound: Nc1cccc(C(=O)O)c1C(=O)O [Metabolite M2, 3-Aminophthalic acid]
Reply | 3.31 (28.4) ngEq*h/mL

Ask | Provide only the value of recorded AUC0–24 for NC(=O)CCC(C(=O)O)N1C(=O)c2cccc(N)c2C1=O (stereo not shown) [Metabolite M11]
Reply | 12.3 (43.6) ngEq*h/mL

Ask | Identify measured AUC0–24 associated with Nc1c(O[C@@H]2O[C@H](C(=O)O)[C@@H](O)[C@H](O)[C@H]2O)ccc2c1C(=O)N(C1CCC(=O)NC1=O)C2=O (stereo partly shown) [Metabolite M12]
Reply | 8.90 (20.9) ngEq*h/mL

Ask | Output AUC0–24 of Nc1ccc(O)c2c1C(=O)N(C1CCC(=O)NC1=O)C2=O (stereo not shown) [Metabolite M16, 7-hydroxy pomalidomide]
Reply | 11.9 (16.8) ngEq*h/mL

Ask | Return reported AUC0–24. Input compound: Nc1c(O)ccc2c1C(=O)N(C1CCC(=O)NC1=O)C2=O (stereo not shown) [Metabolite M17, 5-hydroxy pomalidomide]
Reply | 7.76 (24.8) ngEq*h/mL
